Tested on: DLD1
Test: TCF/Wnt firefly luciferase reporter signal relative to plate median (fraction of plate median); higher = higher Wnt reporter signal
Settings: 5 µM; treatment time 24 h; reporter: 7TFP
Binary classification by TCF/Wnt firefly luciferase reporter signal, with 1 as an inclusive lower bound for Fulfilled; all other cases are Not fulfilled.

molecule | class_name
C=C1C2CCC3(C)C(c4ccoc4)OC(=O)CC13OC1CC(=O)C(C)(C)C(CC(=O)OC)C12C (centres undefined) | Fulfilled
CC(COc1ccccc1)N(CCCl)Cc1ccccc1 (centres undefined) | Fulfilled
C[C@]12C=CC(=O)C=C1CC[C@H]1[C@@H]3C[C@@H](O)[C@](O)(C(=O)CO)[C@@]3(C)C[C@H](O)[C@@]12F | Not fulfilled
CC(=O)O[C@@H]1C2=C(C)C=C(O2)[C@H]2O[C@]2(C)C[C@H]2C=C(C(=O)O2)[C@H](OC(C)=O)CC1[C@@]1(C)CO1 (some centres undefined) [bipinnatin H] | Not fulfilled
CN(C)CCc1c[nH]c2ccc(CS(=O)(=O)N3CCCC3)cc12 | Fulfilled

Kindly determine if TCF/Wnt firefly luciferase reporter signal recorded for C#CC1(O)CC[C@H]2[C@@H]3CCC4=CC(=O)CC[C@@H]4[C@H]3CC[C@@]21CC (mixture of isomers) is above or exactly 1. Fulfilled

Check this molecule for TCF/Wnt firefly luciferase reporter signal at or above 1: Cc1ccsc1/C=C/C1=NCCCN1C Fulfilled

API: above_or_equal(metric=TCF/Wnt firefly luciferase reporter signal, cutoff=1) for item CCN(CC)C(C)CN1c2ccccc2Sc2ccccc21 (centres undefined) Not fulfilled

----------
System: DLD1
Assay: TCF/Wnt firefly luciferase reporter signal relative to plate median (fraction of plate median); higher = higher Wnt reporter signal
Conditions: 5 µM; treatment time 24 h; reporter: 7TFP
measure: TCF/Wnt firefly luciferase reporter signal
API note: the answer field is a bare number with no unit suffix.

Sample answers from the record:
molecule | recorded_value
O=c1[nH]cnc2nc[nH]c12 | 0.969
CC(=O)CCCCn1c(=O)c2c(ncn2C)n(C)c1=O | 1.15
CC12CCC(CC1=O)C2(C)C (stereo not drawn) | 1.02

Return reported TCF/Wnt firefly luciferase reporter signal. Input molecule: CC1=NN(c2ccccc2)C(=O)C1 0.979

State, in one line, measured TCF/Wnt firefly luciferase reporter signal of COc1ccc2c3c1O[C@H]1C[C@@H](O)C=C[C@@]31CCN(C)C2 0.997

Supply recorded TCF/Wnt firefly luciferase reporter signal for CCCCCCCC/C=C/CCCCCCCCOP(=O)([O-])OCC[N+](C)(C)C here. 0.986

Specify reported TCF/Wnt firefly luciferase reporter signal for the molecule shown: CO/N=C(\C(=O)N[C@@H]1C(=O)N2C(C(=O)OCOC(=O)C(C)(C)C)=C(/C=C\c3scnc3C)CS[C@H]12)c1csc(N)n1 0.809

Determine its reported TCF/Wnt firefly luciferase reporter signal: C=CCNC1=C2C[C@@H](C)C[C@H](OC)[C@H](O)[C@@H](C)/C=C(\C)[C@H](OC(N)=O)[C@@H](OC)/C=C\C=C(/C)C(=O)NC(=CC1=O)C2=O 0.878

Look up and state reported TCF/Wnt firefly luciferase reporter signal for Fc1ccc([C@@H]2CCNC[C@H]2COc2ccc3c(c2)OCO3)cc1 1.1

Identify the reported TCF/Wnt firefly luciferase reporter signal for the following entry. COC1=CC(=O)C(C(=O)c2ccccc2)=CC1=O 1.03

Note TCF/Wnt firefly luciferase reporter signal for the molecule shown: CCCCCC(C)N (stereo not drawn) 1.14

Output measured TCF/Wnt firefly luciferase reporter signal for this item: CCS(=O)(=O)CCn1c([N+](=O)[O-])cnc1C 0.869

Give TCF/Wnt firefly luciferase reporter signal for O=c1c(-c2ccc(O)cc2)coc2cc(O)cc(O)c12 [Genistein (Biofocus)] 1.21

Supply reported TCF/Wnt firefly luciferase reporter signal belonging to this molecule: CC(C)C[C@H]1C(=O)N2CCC[C@H]2C(=O)N1O [Cyclo(hydroxyleucylprolyl)] 0.949

----------
cell viability reference
Tested on: HCT116
Experiment: cell viability (CellTiter-Glo) relative to plate median (fraction of plate median); higher = more viable cells
Conditions: 5 µM; treatment time 24 h; reporter: TCF4/Wnt
Just the number, please.

Example entries and their recorded answers appear below.
compound | study_system | cell viability
Cc1oc(=O)c2c(O)cccc2c1CO [8-Hydroxy-4-hydroxymethyl-3-methyl-isocumarin] | HCT116 | 0.925
COC1=C(OC)C(=O)C(C/C=C(\C)CC/C=C(\C)CC/C=C(\C)CC/C=C(/C)CC/C=C(\C)CC/C=C(\C)CC/C=C(\C)CC/C=C(\C)CC/C=C(\C)CCC=C(C)C)=C(C)C1=O | HCT116 | 0.993
COCCc1ccc(OCC(O)CNC(C)C)cc1 (stereo not given) | HCT116 | 0.959

Next, consider the following compound.
Specify cell viability for CN(C)CCC(c1ccc(Br)cc1)c1ccccn1 (stereo not given) , system HCT116. 1.05

----------
System: DLD1
Assay: cell viability (CellTiter-Glo) relative to plate median (fraction of plate median); higher = more viable cells
Conditions: 5 µM; treatment time 24 h; reporter: 7TFP
Listing of recorded cell viability by entry.
Answer as a number with no unit attached.

Worked set:
entry_smiles | cell viability
NC[C@@H]1O[C@@H](O[C@H]2[C@H](O)[C@@H](O[C@H]3O[C@H](CO)[C@@H](O)[C@H](N)[C@H]3O)[C@H](N)C[C@@H]2N)[C@@H](O)[C@H](O)[C@H]1O | 0.986
COc1ccc2cc(CCC(C)=O)ccc2c1 | 0.968
C[C@@H]1C(=O)O[C@H]2C[C@@]34[C@H]5C[C@@H](C(C)(C)C)[C@]36[C@@H](OC(=O)[C@@H]6O)O[C@@]4(C(=O)O5)[C@]21O | 1.07

Please look at the following compound next.
For the compound O=c1c(-c2cc(O)c(O)c(O)c2)coc2cc(O)c(O)c(O)c12 , give its reported cell viability. 1

----------
Test system: SW480
Experiment: cell viability (CellTiter-Glo) relative to plate median (fraction of plate median); higher = more viable cells
Details: 5 µM; treatment time 24 h; reporter: 7TFP
Listing of recorded cell viability by entry.
Write the number on its own, no unit after it.

compound | recorded_value
NS(=O)(=O)c1cc2c(cc1C(F)(F)F)NC(Cc1ccccc1)NS2(=O)=O (stereo not given) | 0.988
NCCOB(c1ccccc1)c1ccccc1 | 0.96
Cc1nnc(NS(=O)(=O)c2ccc(N)cc2)s1 | 1.01

Look up and report measured cell viability (SW480) for the following compound: C=CC(C)(O)CCC=C(C)CCC=C(C)C (mixture of isomers) 0.94

Answer briefly: cell viability recorded on SW480 for CC1(C)CC2C1CC[C@]1(CBr)CCC3C(CC(=O)O)C(=O)O[C@@]32C1 (stereo not given in full) [BROMO-3-HYDROXY-4-(SUCCIN-2-YL)-CARYOLANE gamma-LACTONE] 0.987

For SW480, give cell viability of the listed compound: O=C(O)c1ccccc1Nc1ccccc1 1.04

For SW480, give cell viability of the listed compound: COCCCOc1cc(C[C@@H](C[C@H](NC(=O)OC(C)(C)C)[C@@H]2C[C@@H](C(C)C)C(=O)O2)C(C)C)ccc1OC 0.959

GET cell viability | system: SW480 | item: CC(=O)N[C@@H](CC(C)C)C(=O)O 0.966

Name the value of cell viability reported for Cc1c(Cl)cccc1Nc1ccccc1C(=O)O when tested on SW480. 0.914

State the measured cell viability (SW480) of CC1=C(C(=O)O)N2C(=O)[C@@H](NC(=O)[C@H](N)c3ccccc3)[C@H]2SC1 0.983

----------
Test system: DLD1
Test: cell viability (CellTiter-Glo) relative to plate median (fraction of plate median); higher = more viable cells
Details: 5 µM; treatment time 24 h; reporter: 7TFP
measure: cell viability
Respond using a number only.

Consider the reported cell viability for these compounds:
compound | recorded_value
CC[C@H]1OC(=O)[C@H](C)[C@@H](O[C@H]2C[C@@](C)(OC)[C@@H](O)[C@H](C)O2)[C@H](C)[C@@H](O[C@@H]2O[C@H](C)C[C@H](N(C)C)[C@H]2O)[C@](C)(OC)C[C@@H](C)C(=O)[C@H](C)[C@@H](O)[C@]1(C)O | 0.858
CCn1cc(C(=O)O)c(=O)c2ccc(C)nc21 | 0.975
O=C(O)/C=C/C=C/c1ccccc1 | 0.976
CC(C)NCC(O)COc1cccc2ccccc12 (stereo unspecified) | 0.927

Specify reported cell viability for the compound shown: CN(C)CCC=C1c2ccccc2C=Cc2ccccc21 1.02

Answer with reported cell viability of O=C(O)/C=C/c1ccc(O)c(O)c1 0.941

Note down cell viability recorded for COc1ccc2c3c1O[C@H]1C[C@@H](O)C=C[C@@]31CCN(C)C2 1.04

Consider the compound CC(C)NCC(O)c1ccc2ccccc2c1 (stereo unspecified) and give its recorded cell viability. 0.986

Determine its reported cell viability: CN(C)CCC=C1c2ccccc2CCc2ccccc21 0.958

Provenance of the data: the supplement of paper PMC6522484
